Reference source: the supplement of paper PMC3334620

Biological target: Sko1 (UniProt Q02100)
Sequence: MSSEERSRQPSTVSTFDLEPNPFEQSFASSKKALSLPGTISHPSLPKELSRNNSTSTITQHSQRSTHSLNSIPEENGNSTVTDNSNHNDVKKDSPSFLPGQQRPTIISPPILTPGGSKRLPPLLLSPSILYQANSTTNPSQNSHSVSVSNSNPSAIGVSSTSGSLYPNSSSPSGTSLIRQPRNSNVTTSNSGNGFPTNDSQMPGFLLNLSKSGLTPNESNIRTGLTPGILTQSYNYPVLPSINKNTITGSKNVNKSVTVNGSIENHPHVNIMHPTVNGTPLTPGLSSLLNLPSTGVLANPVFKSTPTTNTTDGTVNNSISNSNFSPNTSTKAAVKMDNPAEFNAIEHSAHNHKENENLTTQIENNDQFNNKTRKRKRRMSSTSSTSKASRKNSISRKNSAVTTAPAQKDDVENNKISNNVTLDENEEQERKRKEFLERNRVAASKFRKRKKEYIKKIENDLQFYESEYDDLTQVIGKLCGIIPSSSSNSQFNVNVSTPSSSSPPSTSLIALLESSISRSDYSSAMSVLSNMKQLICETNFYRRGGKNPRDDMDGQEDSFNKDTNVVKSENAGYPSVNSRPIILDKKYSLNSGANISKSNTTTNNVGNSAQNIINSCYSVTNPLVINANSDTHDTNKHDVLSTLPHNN
Assay: PBM E-score (8-mer binding enrichment) (E-score (-0.5 to 0.5)); higher = stronger / more preferred TF binding
Details: protein concentration: 200 nM; construct: GST-full length
Whole data set: some 33,000 sequences, median “E-score (-0.5 to 0.5)” near -0.032, cut for the highest 2% near 0.36. The full list was thinned out, with the highest values kept by preference.
I would appreciate it if you labelled entries 1 when PBM E-score is 0.07 or higher, otherwise -1.

Entry Sequence | Test System | Label Value
AATCCCGA | Sko1 (UniProt Q02100) | 1
AGTCAGAA | Sko1 (UniProt Q02100) | -1
GCGTAAGA | Sko1 (UniProt Q02100) | 1
CTGTAATA | Sko1 (UniProt Q02100) | -1
GAGTAAGA | Sko1 (UniProt Q02100) | 1

In the following, a different sequence is considered.
Input: Confirm if PBM E-score reported for the sequence CCTGACGC is 0.07 or above.
Output: -1
